Target: PD-1 antigen (ELISA of Example 2) (human, UniProt Q15116 25-167, limits assumed)
Sequence (Q15116 25-167 limits assumed): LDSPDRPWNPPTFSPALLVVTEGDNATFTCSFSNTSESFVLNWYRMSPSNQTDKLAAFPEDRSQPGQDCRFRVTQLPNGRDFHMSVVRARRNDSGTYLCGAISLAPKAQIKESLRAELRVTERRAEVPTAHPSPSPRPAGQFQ
Experiment: ELISA, signal on PD-1 antigen; also: test concentration or dose not given here
measured property: ELISA A

3PD82 (VHH, PD-1 VHH) VHH: QVQLQESGGGSVQPGGSLRLSCAVSGFILDYYGIGWFRQAPGKEREAVSCISSSDGSTYYADSVKGRFTISRDNALNTLYLQMNSLKPEDTAVYYCATATLCDGGIWGYWGQGTQVTVSS
4

1: 2PD23 (VHH, PD-1 VHH) VHH: QVQLQESGGGLVQPGGSLRLSCAASGFSMDYYAIAWFRQAPGKEREEISCITGSDFMVDTYYVASVKGRFTISRDNAENTAYLQMNNLKPEDTGVYFCAVRSTANTLCPSHYSVMDYWGKGTQVTVSS
2: 2PD-152 (VHH, PD-1 VHH) VHH: QVQLQESGGGLVQTGESLRLSCAASGIIKSINFMGWYRQPPGTKRELVASTTSDGRTTVADSVKGRFTISRDNAKNTIYLEMSSLKPEDTATYWCNADIWLPSDRMYNYWGQGTQVTVSS
3: 3PD55 (VHH, PD-1 VHH) VHH: QVQLQESGGGLAQAGGSLRLSCEGSGLSLDYDGVGWFRQAPGKEREAVSCISSSDGSTYYADSVKGRFTISRGNALNTLYLQMNSLKPEDTAVYYCATATLCDGGIWGYWGQGTQVTVSS
Exercise: Could you please order the items by ELISA A, going from the lowest number to the highest? Rank them, then answer with their labels in that order.
Solution: 1, 2, 3
(1: 0.94, 2: 2.31, 3: 3.58)
